FYI, the data here is from paper PMC10408038.

System: NCI-H522 cells
testName: Liproxstatin-1 rescue experiments
Type: cell-based
runConditions: compound at 2–3 times the IC50, Liproxstatin-1 0.25 μM
property: rescue of cytotoxicity by Liproxstatin-1

[[record]]
compound = "C#CCNC1CCC(c2csc(C#C)n2)=C1C (stereo not drawn)"
property = "rescue of cytotoxicity by Liproxstatin-1"
testresult = "significant rescue"

[[record]]
compound = "C#CCNC(=O)c1csc(C#C)n1"
property = "rescue of cytotoxicity by Liproxstatin-1"
testresult = "significant rescue"

[[record]]
compound = "C#CC1=Nc2ccccc2C(C)(C)O1 [Compound 2, reference compound]"
property = "rescue of cytotoxicity by Liproxstatin-1"
testresult = "significant rescue"

